Field Ki: reported value for Carbonic anhydrase 9 (Homo sapiens, UniProt Q16790); entries drawn from several documents.
REPORTED ENDPOINT: Ki (nM)

compound=Cc1ccc(-c2nn(-c3nc4ccc(S(N)(=O)=O)cc4s3)cc2C=O)cc1 reported_result=699
compound=NS(=O)(=O)c1ccc(C(=O)N2CCN(C(=O)c3cccc(Br)c3)CC2)cc1 reported_result=16.2
compound=CNC(=O)CN1C(=O)c2ccccc2S1(=O)=O reported_result=200
compound=Cc1ccc2c(c1)C(=O)N(c1ccc(C(=O)O)cc1)C2=O reported_result=350
compound="CCOP(=O)(OCC)C(Nc1ccc(S(N)(=O)=O)cc1)c1ccccc1[N+](=O)[O-] (stereo not given)" reported_result=293

* * *

pKi: −log10 of the molar value.
Field pKi: reported value for Carbonic anhydrase 9 (Homo sapiens, UniProt Q16790); entries drawn from several documents.
REPORTED ENDPOINT: pKi

compound=NS(=O)(=O)c1ccc(C[n+]2c(-c3ccccc3)cc(-c3ccccc3)cc2-c2ccccc2)cc1 reported_endpoint=pKi sign== reported_result=6.92
compound=Cc1ccc(-c2coc3cc4oc(=O)c(CC(=O)Nc5ccc(S(N)(=O)=O)cc5)c(C)c4cc23)cc1 reported_endpoint=pKi sign== reported_result=7.04
compound=O=C(/C=C/c1cccc(O)c1)C[C@@H]1O[C@H](CO)[C@@H](O)[C@H](O)[C@H]1O reported_endpoint=pKi sign== reported_result=5.35
compound=COC(=O)Cc1c(C)c2ccc(OCC(=O)c3ccc(Cl)cc3)cc2oc1=O reported_endpoint=pKi sign== reported_result=7.63
compound=C#CCOc1ccc(Br)cc1/C=N/Cc1ccc(S(N)(=O)=O)cc1 reported_endpoint=pKi sign== reported_result=6.72
compound=CC(=O)c1nnn(-c2ccc(S(=O)(=O)Nc3nccs3)cc2)c1C reported_endpoint=pKi sign=< reported_result=4.00
compound=CC(=O)Nc1ccc(S(N)(=O)=O)cc1F reported_endpoint=pKi sign== reported_result=6.67
compound=NS(=O)(=O)c1ccc(-n2cc(CO[C@@H]3O[C@H](CO)[C@@H](O)[C@H](O)[C@H]3O)nn2)cc1 reported_endpoint=pKi sign== reported_result=7.00
compound=NS(=O)(=O)c1ccc(N2CN(Cc3c(F)c(F)c(F)c(F)c3F)CCS2(=O)=O)cc1 reported_endpoint=pKi sign== reported_result=6.01
compound=O=C(O)c1ccc(C(=O)Nc2cc3c(=O)n(O)c(=O)[nH]c3cc2Cl)cc1 reported_endpoint=pKi sign== reported_result=8.10
compound=COc1cc2c(cc1OS(N)(=O)=O)NC(=O)N(Cc1cccc(OC)c1OC)C2 reported_endpoint=pKi sign== reported_result=5.99
compound="NS(=O)(=O)c1ccc(N2C(=O)CSC2c2ccc(Br)cc2)cc1 (stereo not drawn)" reported_endpoint=pKi sign== reported_result=7.87
compound=NS(=O)(=O)c1ccc(-n2cc(C(=O)c3ccccc3)nn2)cc1 reported_endpoint=pKi sign== reported_result=6.86
compound=CCOC(=O)c1cc(-c2ccc([N+](=O)[O-])cc2)n(-c2ccc(S(N)(=O)=O)cc2)n1 reported_endpoint=pKi sign== reported_result=7.69
compound=NS(=O)(=O)c1ccc(-c2cn([C@@H]3O[C@H](CO)[C@@H](O)[C@H](O)[C@H]3O)nn2)cc1 reported_endpoint=pKi sign== reported_result=7.05
compound=NS(=O)(=O)c1ccc(N2CCC3(CC2)CC(=O)c2cc(Br)ccc2O3)c([N+](=O)[O-])c1 reported_endpoint=pKi sign== reported_result=6.70
compound="CCOP(=O)(OCC)C(Nc1ccc(S(N)(=O)=O)cc1)c1ccc(SC)cc1 (stereo not drawn)" reported_endpoint=pKi sign== reported_result=7.10
compound=NS(=O)(=O)c1ccc(-n2cc(CO)c(-c3ccccc3)n2)cc1 reported_endpoint=pKi sign== reported_result=7.18
compound=NS(=O)(=O)c1ccc(/N=C/c2ccc(/C=N/c3ccc(S(N)(=O)=O)cc3)o2)cc1 reported_endpoint=pKi sign== reported_result=7.12
compound=CCOC(=O)N1CCN(c2nc(C)cc(OCc3cn(-c4ccc(S(N)(=O)=O)cc4)nn3)n2)CC1 reported_endpoint=pKi sign== reported_result=7.48
compound=CCCN(CCC)S(=O)(=O)c1ccc(C(=O)N[C@@H](Cc2ccc(O)cc2)C(=O)O)cc1 reported_endpoint=pKi sign== reported_result=7.49
compound="COc1ccc2c(c1)CCN(S(N)(=O)=O)C2c1ccccc1 (racemic)" reported_endpoint=pKi sign== reported_result=7.11
compound=CCCN(CCC)S(=O)(=O)c1ccc(C(=O)N[C@@H](CCC(=O)O)C(=O)O)cc1 reported_endpoint=pKi sign== reported_result=7.51
compound=NS(=O)(=O)c1ccc(-n2cc(C(=O)c3cccs3)nn2)cc1 reported_endpoint=pKi sign== reported_result=6.44
compound=NS(=O)(=O)c1ccc(-c2nonc2S(=O)(=O)c2ccccc2)cc1 reported_endpoint=pKi sign== reported_result=7.20
compound=CCOC(=O)[C@@H]1C[C@H]1Cc1c(Br)c(Br)c(OC)c(OC)c1Br reported_endpoint=pKi sign== reported_result=5.11
compound=NS(=O)(=O)c1ccc(C(=O)N2CCN(C(=O)c3ccccc3)CC2)cc1 reported_endpoint=pKi sign== reported_result=7.43
compound=COc1cc2ccc(=O)oc2c(O)c1OC reported_endpoint=pKi sign== reported_result=6.07
compound="CC(=O)N1N=C(c2ccc(F)cc2)CC1c1cccc(OS(N)(=O)=O)c1 (stereo not drawn)" reported_endpoint=pKi sign== reported_result=7.80
compound="COc1ccc2c(c1)CCN(C(=O)c1ccc(S(N)(=O)=O)cc1)C2c1ccccc1 (single isomer, unassigned; enantiomer 2)" reported_endpoint=pKi sign== reported_result=7.23
compound=NS(=O)(=O)c1ccc(CCNCc2ccccc2)cc1 reported_endpoint=pKi sign== reported_result=8.37
compound="CC(=O)N1N=C(c2ccc(OS(N)(=O)=O)cc2)CC1c1cccc2ccccc12 (stereo not drawn)" reported_endpoint=pKi sign== reported_result=7.31
compound=Cc1c(-c2nnc(SCC(=O)c3ccc(F)cc3)[nH]2)nnn1-c1ccc(S(N)(=O)=O)cc1 reported_endpoint=pKi sign== reported_result=5.52
compound=CCCCC(=O)OC[C@H]1O[C@@H](n2cc(-c3cccc(S(N)(=O)=O)c3)nn2)[C@H](OC(=O)CCCC)[C@@H](OC(=O)CCCC)[C@@H]1OC(=O)CCCC reported_endpoint=pKi sign== reported_result=6.40
compound=O=C(O)c1cc(-c2c3ccc(=O)cc-3oc3cc(O)ccc23)ccc1NC(=S)NCCc1ccc(O)c(O)c1 reported_endpoint=pKi sign== reported_result=5.17
compound=CC(C)c1ccccc1NC(=O)Nc1cccc(S(N)(=O)=O)c1 reported_endpoint=pKi sign== reported_result=6.46
compound=NCCCOc1ccc(S(N)(=O)=O)cc1 reported_endpoint=pKi sign== reported_result=7.75
compound=COC(=O)[C@H]1O[C@@H](n2cc(CNC(=O)c3ccc(S(N)(=O)=O)cc3)nn2)[C@H](OC(C)=O)[C@@H](OC(C)=O)[C@@H]1OC(C)=O reported_endpoint=pKi sign== reported_result=6.33
